Entries and their surface tension liquid-gas values follow.
Condition Parameters: 303.15 K; Liquid; Maximal bubble pressure
All answers are understood in mN/m, so give the number only.

Molecule: CCCC(=O)[O-].CCCC[NH3+] [n-butylammonium butanoate]
Parameter: surface tension liquid-gas
Reported Result: 25.1
--
Molecule: CCC(=O)[O-].CCCC[NH3+] [butylammonium propanoate]
Parameter: surface tension liquid-gas
Reported Result: 27.5
--
Molecule: CCCC[NH3+].O=C[O-] [butylammonium formate]
Parameter: surface tension liquid-gas
Reported Result: 32.9

Moving on to another molecule below.
## Task Would you mind telling me what surface tension liquid-gas value was observed for CC(=O)O.CCCCN [butylammonium acetate] ?
## Result 30.8

###

Condition Parameters: 323.15 K; 100 kPa; Liquid; Alternating current cell with electrodes
Parameter: electrical conductivity

// worked examples, electrical conductivity included
Compound: CCC(=O)[O-].CCCC[NH3+] [butylammonium propanoate]
Reported Result: 0.164 S/m
//
Compound: CC(=O)O.CCCCN [butylammonium acetate]
Reported Result: 0.197 S/m
//
Compound: CCCC(=O)[O-].CCCC[NH3+] [n-butylammonium butanoate]
Reported Result: 0.109 S/m

Moving on to another compound below.
## Task Would you mind telling me what electrical conductivity value was observed for CCCC[NH3+].O=C[O-] [butylammonium formate] ?
## Result 0.67 S/m

###

Condition Parameters: 303.15 K; 100 kPa; Liquid; Alternating current cell with electrodes
Parameter: electrical conductivity (S/m)
All answers are understood in S/m, so give the number only.

// worked examples, electrical conductivity included
Compound: CCCC(=O)[O-].CCCC[NH3+] [n-butylammonium butanoate]
Reported Result: 0.047
//
Compound: CCCC[NH3+].O=C[O-] [butylammonium formate]
Reported Result: 0.384
//
Compound: CC(=O)O.CCCCN [butylammonium acetate]
Reported Result: 0.082

Moving on to another compound below.
## Task Would you mind telling me what electrical conductivity value was observed for CCC(=O)[O-].CCCC[NH3+] [butylammonium propanoate] ?
## Result 0.074

###

Entries and their mass density values follow.
Condition Parameters: 313.15 K; 100 kPa; Liquid; Vibrating tube method
All answers are understood in kg/m3, so give the number only.

// worked examples, mass density included
Molecule: CCCC[NH3+].O=C[O-] [butylammonium formate]
Reported Result: 964.4
--
Molecule: CC(=O)O.CCCCN [butylammonium acetate]
Reported Result: 946.81
--
Molecule: CCCC(=O)[O-].CCCC[NH3+] [n-butylammonium butanoate]
Reported Result: 896.28

Moving on to another molecule below.
## Task Would you mind telling me what mass density value was observed for CCC(=O)[O-].CCCC[NH3+] [butylammonium propanoate] ?
## Result 921.76

###

Entries and their viscosity values follow.
Condition Parameters: 323.15 K; 100 kPa; Liquid; Capillary tube (Ostwald / Ubbelohde) method
All answers are understood in mPa·s, so give the number only.

Compound: CCCC[NH3+].O=C[O-] [butylammonium formate]
viscosity, mPa·s: 37.22
//
Compound: CCCC(=O)[O-].CCCC[NH3+] [n-butylammonium butanoate]
viscosity, mPa·s: 199.16

## Task Would you mind telling me what viscosity value was observed for CC(=O)O.CCCCN [butylammonium acetate] ?
## Result 126.15

## Task Would you mind telling me what viscosity value was observed for CCC(=O)[O-].CCCC[NH3+] [butylammonium propanoate] ?
## Result 162.68
